// provenance: the supplement of paper PMC3334620

Target: Cad1 (UniProt P24813)
Sequence: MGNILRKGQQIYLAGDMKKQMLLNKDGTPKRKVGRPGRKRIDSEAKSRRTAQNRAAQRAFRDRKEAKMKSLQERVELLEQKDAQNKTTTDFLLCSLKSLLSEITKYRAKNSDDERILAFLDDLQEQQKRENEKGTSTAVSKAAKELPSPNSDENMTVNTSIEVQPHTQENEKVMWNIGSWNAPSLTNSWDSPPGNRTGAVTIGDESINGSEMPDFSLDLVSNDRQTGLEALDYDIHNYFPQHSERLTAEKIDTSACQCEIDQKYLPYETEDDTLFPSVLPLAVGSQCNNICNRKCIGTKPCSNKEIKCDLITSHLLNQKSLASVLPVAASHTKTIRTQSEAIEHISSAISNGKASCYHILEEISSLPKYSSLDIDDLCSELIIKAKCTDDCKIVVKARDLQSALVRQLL
Assay: PBM E-score (8-mer binding enrichment) (E-score (-0.5 to 0.5)); higher = stronger / more preferred TF binding
Details: protein concentration: 100 nM; construct: GST-full length
The full ranking holds about 33,000 sequences; the median of “E-score (-0.5 to 0.5)” is about -0.0014, and the highest 2% start at about 0.25. This is one part of a sample in which the highest values are shown more often than they occur.
Measurement Label: PBM E-score

seq_string=GTCGGATA tested_system="Cad1 (UniProt P24813)" observed_measurement=0.0779
seq_string=ACTATAGG tested_system="Cad1 (UniProt P24813)" observed_measurement=-0.161
seq_string=AAATATGA tested_system="Cad1 (UniProt P24813)" observed_measurement=0.234
seq_string=ACTATAGA tested_system="Cad1 (UniProt P24813)" observed_measurement=-0.00757
seq_string=AGTAGCCA tested_system="Cad1 (UniProt P24813)" observed_measurement=-0.282
seq_string=CAGGTCTC tested_system="Cad1 (UniProt P24813)" observed_measurement=-0.164
seq_string=ATATATAT tested_system="Cad1 (UniProt P24813)" observed_measurement=0.295
seq_string=ACATATAT tested_system="Cad1 (UniProt P24813)" observed_measurement=0.155
seq_string=ACTATAGT tested_system="Cad1 (UniProt P24813)" observed_measurement=0.293
seq_string=CTCGGATA tested_system="Cad1 (UniProt P24813)" observed_measurement=0.193
seq_string=CTATATAC tested_system="Cad1 (UniProt P24813)" observed_measurement=0.27
seq_string=CACGGATA tested_system="Cad1 (UniProt P24813)" observed_measurement=0.22
seq_string=CGCATGTC tested_system="Cad1 (UniProt P24813)" observed_measurement=0.0303
seq_string=AATATAGG tested_system="Cad1 (UniProt P24813)" observed_measurement=0.123
seq_string=AATATCGG tested_system="Cad1 (UniProt P24813)" observed_measurement=0.183
seq_string=CTTCCATA tested_system="Cad1 (UniProt P24813)" observed_measurement=-0.244
seq_string=AGTTTGTG tested_system="Cad1 (UniProt P24813)" observed_measurement=-0.0199
seq_string=TATAAATA tested_system="Cad1 (UniProt P24813)" observed_measurement=0.25
seq_string=CTCTATAC tested_system="Cad1 (UniProt P24813)" observed_measurement=0.0205
seq_string=AATATAGC tested_system="Cad1 (UniProt P24813)" observed_measurement=0.0229
seq_string=ATATATCA tested_system="Cad1 (UniProt P24813)" observed_measurement=0.134
seq_string=CTATATCC tested_system="Cad1 (UniProt P24813)" observed_measurement=-0.0465

###

Target: Cad1 (UniProt P24813)
Sequence: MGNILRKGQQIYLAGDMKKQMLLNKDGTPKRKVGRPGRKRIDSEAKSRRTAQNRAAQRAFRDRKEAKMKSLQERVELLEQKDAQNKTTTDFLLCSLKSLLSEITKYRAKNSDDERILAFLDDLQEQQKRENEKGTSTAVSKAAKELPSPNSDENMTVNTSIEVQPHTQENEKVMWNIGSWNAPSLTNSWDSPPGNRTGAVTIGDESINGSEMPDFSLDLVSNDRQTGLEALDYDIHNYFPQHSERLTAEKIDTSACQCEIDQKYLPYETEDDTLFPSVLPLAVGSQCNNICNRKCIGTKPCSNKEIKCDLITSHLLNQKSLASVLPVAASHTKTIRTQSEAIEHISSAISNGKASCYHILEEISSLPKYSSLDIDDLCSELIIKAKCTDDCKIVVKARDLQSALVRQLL
Test: PBM E-score (8-mer binding enrichment) (E-score (-0.5 to 0.5)); higher = stronger / more preferred TF binding
Conditions: protein concentration: 100 nM; construct: GST-full length
The full ranking holds about 33,000 sequences; the median of “E-score (-0.5 to 0.5)” is about -0.0014, and the highest 2% start at about 0.25. Many of the other results were omitted from the sample, so the highest values are more common in it than they were.
Measurement Label: PBM E-score

seq_string=TATTAGAA measurement_label="PBM E-score" observed_measurement=0.24
seq_string=GGCTGATA measurement_label="PBM E-score" observed_measurement=-0.0873
seq_string=ATGCCCGA measurement_label="PBM E-score" observed_measurement=-0.0531
seq_string=ACAACCAG measurement_label="PBM E-score" observed_measurement=0.145
seq_string=CGCGCGAG measurement_label="PBM E-score" observed_measurement=0.302
seq_string=CCACCATA measurement_label="PBM E-score" observed_measurement=-0.0653
seq_string=CTCGAAGC measurement_label="PBM E-score" observed_measurement=0.00892
seq_string=ATGCGCGC measurement_label="PBM E-score" observed_measurement=0.238
seq_string=AGCTGACA measurement_label="PBM E-score" observed_measurement=0.192
seq_string=GACCAAGC measurement_label="PBM E-score" observed_measurement=0.0511
seq_string=CGCAGCAC measurement_label="PBM E-score" observed_measurement=0.0114
seq_string=ACGGAAAC measurement_label="PBM E-score" observed_measurement=-0.0435
seq_string=CGGCGCGC measurement_label="PBM E-score" observed_measurement=0.258
seq_string=TGCTGACA measurement_label="PBM E-score" observed_measurement=0.334
seq_string=CTGTAGCC measurement_label="PBM E-score" observed_measurement=-0.0863
seq_string=AGTGTGAC measurement_label="PBM E-score" observed_measurement=-0.0643
seq_string=GGCTGACC measurement_label="PBM E-score" observed_measurement=-0.121
seq_string=ACAACCAT measurement_label="PBM E-score" observed_measurement=0.281
seq_string=AATTATAT measurement_label="PBM E-score" observed_measurement=0.29
seq_string=AACCAAAC measurement_label="PBM E-score" observed_measurement=-0.102
seq_string=ACAACCAC measurement_label="PBM E-score" observed_measurement=0.056
seq_string=CACCGAAA measurement_label="PBM E-score" observed_measurement=0.12
seq_string=ACAACTAT measurement_label="PBM E-score" observed_measurement=0.0919
seq_string=CTTCGCGC measurement_label="PBM E-score" observed_measurement=0.263
seq_string=ATATATTA measurement_label="PBM E-score" observed_measurement=0.368
seq_string=CAACGCGA measurement_label="PBM E-score" observed_measurement=0.157
seq_string=ATCGTTCA measurement_label="PBM E-score" observed_measurement=0.0567
seq_string=AACACGTG measurement_label="PBM E-score" observed_measurement=0.217
seq_string=CGCTGACG measurement_label="PBM E-score" observed_measurement=0.0393
seq_string=AAGTCATG measurement_label="PBM E-score" observed_measurement=0.0989
seq_string=GAATCGTA measurement_label="PBM E-score" observed_measurement=0.0597
seq_string=CGGCTCCA measurement_label="PBM E-score" observed_measurement=-0.0781
seq_string=AGTTATAT measurement_label="PBM E-score" observed_measurement=0.101
seq_string=AGATTTCC measurement_label="PBM E-score" observed_measurement=0.185
seq_string=GTATATTA measurement_label="PBM E-score" observed_measurement=0.115
seq_string=ATTCGCGC measurement_label="PBM E-score" observed_measurement=0.17
seq_string=ACGGAAAT measurement_label="PBM E-score" observed_measurement=0.288
seq_string=GCTCGGTA measurement_label="PBM E-score" observed_measurement=-0.203
seq_string=TGCATACA measurement_label="PBM E-score" observed_measurement=0.0433
seq_string=TAGTTATA measurement_label="PBM E-score" observed_measurement=0.068
seq_string=ACTTATAT measurement_label="PBM E-score" observed_measurement=0.202
seq_string=ACGGATAT measurement_label="PBM E-score" observed_measurement=0.254
seq_string=AACGCCGG measurement_label="PBM E-score" observed_measurement=-0.0998
seq_string=ACTCGAGT measurement_label="PBM E-score" observed_measurement=0.311
seq_string=ACACTAAA measurement_label="PBM E-score" observed_measurement=0.144
seq_string=ATCGCGCC measurement_label="PBM E-score" observed_measurement=0.143
